- subject.of.test: T1, hCD19-his (human CD19 recombinant protein, Pro20-Lys291, His tag at C-terminus) (human, UniProt P15391 20-291)
- T1 construct: range 20-291; also called human CD19-His
- T1 sequence (looked up): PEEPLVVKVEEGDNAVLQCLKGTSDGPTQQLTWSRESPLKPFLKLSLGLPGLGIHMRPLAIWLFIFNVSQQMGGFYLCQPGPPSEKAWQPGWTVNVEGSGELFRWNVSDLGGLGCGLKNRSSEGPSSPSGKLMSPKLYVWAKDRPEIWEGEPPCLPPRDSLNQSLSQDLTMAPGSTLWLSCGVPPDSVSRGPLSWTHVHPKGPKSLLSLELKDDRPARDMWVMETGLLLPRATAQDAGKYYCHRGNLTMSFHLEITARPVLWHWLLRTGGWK
- experimental.details: ELISA, coated hCD19-His, fully humanized antibody titrated
Recorded EC50, one value per entry.
Write the number in ng/mL without appending the unit.

Worked examples, 2 binders total:
Can you look up the measured EC50 of 15F2 fully humanized antibody (recombinant, human IgG1 / kappa) (antibody, V domains shown) VH: QVQLVESGGGVVQPGRSLRLSCAASGFTFSRHGMHWVRQAPGKGLEWVAVIWYDGSNKYYVDSVKGRFTISRDNSKNTLDLQMNSLRAEDTAVYYCARRSITWDGAFDIWGQGTMVTVSS VL: DIQMTQSPSTLSASVGDRVTVTCRASQSIRSWLAWYQQKPGKAPKLLIYKASSLESGVPSRFSGSGSGTEFTLTISSLQPDDFATYYCQQYNSAYTFGQGTKLEIK for me?
3.78

Which EC50 reading was recorded for the binder 52F9 fully humanized antibody (recombinant, human IgG1 / kappa) (antibody, V domains shown) VH: QVQLVESGGGVVQAGRSLRLSCAASGFTFSNYGIHWVRQAPGKGLEWVGVIWHDGSIKNYADFVKGRFTISRDNSEDTLYLQMNSLRAEDTAVYYCAREQGNYYGWGSYKAFDIWGQGTMVTVSS VL: DIQLTQSPSFLSVFVGDRVTITCRASQGISNYLAWYQQKPGKAPELLLYATSTLQSGVPSRLSGSGSGTEFTLTLSSLQPEDFATYYCQQVYSFPYTFGQGTKLEIK ?
7.92

Now for another entry.
If you can, please state the reported EC50 value of 17B6 fully humanized antibody (recombinant, human IgG1 / kappa) (antibody, V domains shown) VH: QVQLVESGGGVVQPGRSLRLSCEASGFTFSRHGMHWVRQAPGKGLEWVAVIFYDGSQNYYADSVRGRFTISRDNSKNTLSLQMDSLRAEDTAVYYCARRSITWNGGFDIWGQGTMVTVSP VL: DIQMTQSPSTLSASVGDRVTITCRASQSISSWLAWYQQKPGKAPKLLIYKASSLESGVPSRFSGSGSGTEFTLAISSLQPDDFATYYCQQYNRFYTFGQGTKLEIK .
4.52
